assay: yeast display, Sf9 membrane polyspecificity reagent, FACS + sequencing; frameworks hold sequencing errors
OBSERVABLE: polyreactivity (PSR sort gate)

* QVQLVESGGGLVQAGGSLRLSCAASGRIFPYYAMGWYRQAPGKERELVAAISSGTSTYYADSVKGRFTISRDNANNTVYLKMNSLKQEDTAVYYSNGRHRRGRFTHDYDYWGQGTQVTVTS | low polyreactivity
* QVQLVESGGGLVQAGGSLRLSCAASGITLYYNAMGWYRQAPGKESELVAAITWSGSRTYYADSVKGRFTISRDNAKNTVYLQMNSLKPEDTAVSYCAADVDFWNTVEDMDYWGQGNQVTVSS | low polyreactivity
* QVQLVESGGGLVQAGGSLRLSCAASGLTLSYNAMGWYRQAPGKERELVAAIRSGGSTNYADSVKGRFTISRDNAKNTVYLQMNSLKPEDTAVYYCAARFRYLPYRYGRYQSGYEYWGQGTQVTVSS | high polyreactivity
* QVQLVESGGGLVQAGGSLRLSCAASGSIFYRNAMGWYRQAPGKERELVAAISSDGSTNYADSVKGRFTISRDNAMNTVDLQMNSLKPEDTAVYYCAAPWTQILDYWGQGTQVTVSS | low polyreactivity
* QVQLLESGGGLVQAGGSLRLSCAASGLTIWRYAMGWYRQAPGKEREFVATISHNGGRTYYADSVKGRFTISRDNAKNSVYLQMNSLKPEDTAVYYCAADDWRWGYDYWGQGTQVTVSS | high polyreactivity
* QVQLVESGGGLVQAGGSLRLSCAASGSIFSWYAMGWYRQAPGKEWELVAAITWSGGSTYYADSVKGRFTISRDNAKKTVYLQMNSLKPEDTAVYYCAASYDIYGNYRRYDYWGQGTQVTVSS | high polyreactivity
* QVQLVESGGGLVQAGGSLRLSCAASGLTFVANAMGWYRQAPGKERELVAAIDYGGGHTYYADSVKGRFTNSRDNAKNTVYLQMNSLKPEDTAVYYCAVGLPHGGRRLYGSWYRFDYWGQGTQVTVSS | low polyreactivity
* QVQLVESGGGLVQAGGRHRLSCAASGFIFHVYAMGWYRQAPGKERELVAAISSGGSTYYADSVKGRFTISRDNAKNTVYLQMNSLKPEDTAVYYCNGARSRYRYRYDYWGQGTQVTVSS | high polyreactivity
* QVQLVESGGGLVQAGGSLRLSCAASGSTFGVNAMGWYRQAPGKERELVAAISSSGSSTYADSVKGRFTISRDNAKNTVYLQMNSLKPEDTAVYYCAAQSPAYYTKSYWGQGTQVTVSS | low polyreactivity
* QVQLVESGGGLVHAGGSLRLSCAASGRTFYPNVMGWYRQAPGKERELVAAIRARGGSTYYADSVKGRFTISRDNAKNTVYLQMNSLKPEDTAVYYCARDTGDYLQFDYWGQGTQVTVSS | high polyreactivity
* QVQLVESGGGLVQAGGSLRLSCAASGSTFLYYAMGWYRQAPGKEREFVAAISKGSGRTYYADSVKGRFTISRDNAKNTVYLQLNSLKPEDTAVYYCAAAKWRGYPYQSDYWGQGTQVTVSS | high polyreactivity
